# Test system: HOP-92 NSCLC
# experiment: NCI tumour cell line growth inhibition, 48 h; in the data active means GI50 below about 0.43 µM; inactive means the rest
Respond using exactly one of the listed classes: YES = active, NO = inactive

The following molecules have reported results that may help.
molecule: CN1C(=O)C(=Cc2cn(Cc3ccccc3)c3ccccc23)C(=O)N(C)C1=O
tgt: HOP-92 NSCLC
label_class: NO
--
molecule: N#Cc1ccc(C2C3=C(CCCC3=O)OC3=C2C(=O)c2ccccc2C3=O)cc1 (stereo not given)
tgt: HOP-92 NSCLC
label_class: NO
--
molecule: O=[N+]([O-])c1ccc2nc(/C=C(\O)c3ccccc3)c(/C=C(\O)c3ccccc3)nc2c1
tgt: HOP-92 NSCLC
label_class: YES
--
molecule: COc1cc2c(cc1OC)C(CC1(O)CCCCC1)N(S(=O)(=O)c1ccc(C)cc1)CC2 (stereo not given)
tgt: HOP-92 NSCLC
label_class: NO

// return assay outcome for `C[C@]1(C(=O)O)N[C@H](C(=O)O)CS1` NO

# credit: PubChem BioAssay (NCI)
